Each record here notes measured normalized growth.
- test_method_notes: chemical genetic growth profiling, strain panel (AID 1159580);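 further: tested at 20 µM; growth read once vehicle control cultures reached saturation at 30 °C; 1 = growth at the plate median or of vehicle wells; lower values mean less growth of the strain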
- cond: S. cerevisiae deletion strains, growth OD, locus YGL167C, strain pmr1, active compounds read low
Screen size: about 5,500 compounds; about 2,000 (36%) were called active. Not shown: some 18% with an inconclusive outcome. This is one part of the list.
Answer with the value's number alone.

Recorded results for 3 compounds are shown here.
O=C(O)C(O)C(O)C(=O)O (stereo unspecified); 1.02
CC(C)(S)[C@@H](N)C(=O)O; 1
C[C@]12C=CC(=O)C=C1CCC1C2[C@@H](O)C[C@@]2(C)C1CC[C@]2(O)C(=O)CO (stereo partly specified); 1.01

Query block: Please look up its normalized growth: `FC(F)(F)c1cccc(N2CCNCC2)c1`
Result block: 0.981

Query block: Moving on to `O=c1oc2ccccc2cc1O`
Result block: 0.99

Query block: Moving on to `Cc1nnc(NS(=O)(=O)c2ccc(N)cc2)s1`
Result block: 1
